Tested on: OVCAR-5
Assay: NCI tumour cell line growth inhibition, 48 h
Calls of active or inactive are those of the source. No stated cut-off is given here; in the data, active = GI50 up to about 1.1 µM and inactive = higher.
Labels: active, inactive

Compound	Classification
CC/C=C/C[C@H](O[Si](C)(C)C(C)(C)C)[C@H]1C[C@H]2O[C@H]([C@@H](O)C#C[Si](C)(C)C)C[C@H]2O1	inactive
C=C1C(=O)OC2C1CCC(=C)C1CC(O)C(=C)C12 (stereo unspecified)	inactive
COC(=O)/C=C1/OC(c2ccccc2)=CC1=O	inactive
COc1cc(NCc2ccc3oc(=O)c(-c4ccccc4)nc3c2)cc(OC)c1OC	inactive
CC(=O)C(=[N+]=[N-])C(=O)OCCOC(=O)C(=[N+]=[N-])C(C)=O	active
CCc1c(-c2coc(CC/C(C)=C/c3ccccc3)n2)oc(OC)c(C)c1=O	inactive
CC1C2CC(C(C3C(=O)C4CC3C(C)(C)C4C)C2=O)C1(C)C (stereo unspecified)	inactive
COc1cc(/C=C\c2cccnc2)cc(OC)c1OC	inactive
NC(Cc1cc(I)c(O)c(I)c1)C(=O)O (stereo unspecified)	inactive
C=C1C2CC[C@@](C)(O)C2[C@H]2OC(=O)C(=C)[C@@H]2C[C@H]1O (stereo partly specified)	inactive
CCCC(=O)OC1C(C2COC(C)(C)O2)OC2OC(C)(C)OC21 (stereo unspecified)	inactive

====

As shown below, each of these compounds has a reported GI50 value.
System: KM12
Assay: NCI tumour cell line growth inhibition, 48 h
The source made the active and inactive calls. Cut-off read from the data, not from the text of the source: active = GI50 up to about 1.1 µM and inactive = higher.
Observable: GI50

Compound	Target Or Test System	Result
O=C(O[C@H](/C=C/c1ccccc1)P1(=O)N(Cc2ccccc2)[C@H]2CCCC[C@@H]2N1Cc1ccccc1)c1ccccc1	KM12	3.41 µM (inactive)
CC(=O)Nc1ccc(S(=O)(=O)N=S(C)C)cc1	KM12	> 100 µM (inactive)
COC(=O)Cc1cc(=O)oc2c1C(=O)CCC2	KM12	> 100 µM (inactive)
O=C(CN1CCN(c2ccccc2)CC1)c1ccc2[nH]c(=O)oc2c1	KM12	> 100 µM (inactive)
C[n+]1c(-c2ccc(/C=N/NC(=O)c3ccc(C(=O)N/N=C/c4ccc(-c5cn6ccccc6[n+]5C)cc4)cc3)cc2)cn2ccccc21	KM12	> 100 µM (inactive)
O=c1c2ccccc2n2n1Cc1ccccc1C2	KM12	> 100 µM (inactive)
Cc1nc2ccccc2cc1C[N+]12CN3CN(CN(C3)C1)C2	KM12	20.9 µM (inactive)
CC1NC(=O)C2=C1C(N)=NC(=O)C2 (stereo not given)	KM12	> 100 µM (inactive)
O=C(c1ccc(Cl)cc1)N(C(=S)N1CCN(c2ccccn2)CC1)C1CCCCC1	KM12	68.1 µM (inactive)
CC1=C(c2ccc(C)cc2)NC(=S)C(C)C(c2ccc(C)cc2)=N1 (stereo not given)	KM12	49.7 µM (inactive)

====

System: HT-29
Assay: NCI tumour cell line growth inhibition, 48 h
Activity calls are given as the source filed them. No stated cut-off is given here; in the data, active = GI50 up to about 1.1 µM and inactive = higher.
GI50 by entry:

Compound	GI50
NCCSc1nc2ccccc2c(=O)n1-c1ccccc1	49.7 µM (inactive)
CCCN1C(=O)CCC2=C1CCc1c2ccc(Cl)c1Cl	34.8 µM (inactive)
O=c1cc(NCc2ccncc2)[nH]c(=O)[nH]1	> 100 µM (inactive)
COc1ccc(CCn2ccc(C)n2)c(OC)c1	> 100 µM (inactive)
CC1CC/C(=C\c2ccc(F)cc2)C2=C1C(c1ccc(F)cc1)n1c(s/c(=C\c3ccc(Cl)cc3)c1=O)=N2 (stereo unspecified)	> 100 µM (inactive)
CC(=O)C1C(=O)N(C(C)C)C[C@@H]2CCC(=O)C[C@H]12 (stereo partly specified)	> 100 µM (inactive)

====

System: PC-3
Assay: NCI tumour cell line growth inhibition, 48 h
Active and inactive are the calls of the source. No stated cut-off is given here; in the data, active = GI50 up to about 1.1 µM and inactive = higher.
Catalogue of GI50 values

Smiles String	Target Or Test System	GI50
CSCCC(NC(=O)OCc1ccccc1)NC(=O)OCc1ccccc1	PC-3	> 100 µM (inactive)
Cc1c(S(=O)(=O)/N=C(\NN)Nc2ccc(Cl)cc2)sc2ccc(Cl)cc12	PC-3	15.5 µM (inactive)
O=C(OCC12CC3CC(CC(C3)C1)C2)c1ccc(NCc2cc(O)ccc2O)cc1	PC-3	0.713 µM (active)
Cc1nc2ccccc2c(-n2cccn2)c1CCn1cccn1	PC-3	> 100 µM (inactive)
Cc1cc2[n-][n+]3ncc(-c4ccccc4)n3c2cc1[N+](=O)[O-]	PC-3	> 100 µM (inactive)
NC(=O)c1oc([N+](=O)[O-])c(-c2ccccc2)c1-c1ccccc1	PC-3	15.5 µM (inactive)

====

Tested on: NCI/ADR-RES
Assay: NCI tumour cell line growth inhibition, 48 h
Active and inactive are the calls of the source. No stated cut-off is given here; in the data, active = GI50 up to about 1.1 µM and inactive = higher.
Observable: GI50

Molecule	Result
O=C(O[C@H](/C=C/c1ccccc1)P1(=O)N(Cc2ccccc2)[C@H]2CCCC[C@@H]2N1Cc1ccccc1)c1ccccc1	3.05 µM (inactive)
C[C@]1(CO)[C@H]2CC[C@@]34C=C[C@@](CO)(CC[C@H]3[C@]2(C)CC[C@H]1O)C4	27.3 µM (inactive)
COc1cc(OC)c(-c2cc(=O)c3c(OC)c(OC)c(OC)c(OC)c3o2)cc1OC	21.9 µM (inactive)
CCCN(CCC)C(=S)N/N=C(/C)c1ccccc1O	1.57 µM (inactive)
CC(C)N(C(=O)C12C3(C(=O)OC(C)(C)C)C4C5(C#N)C3C1(C(=O)OC(C)(C)C)C5C42C(=O)OC(C)(C)C)C(C)C (stereo not drawn)	76.4 µM (inactive)
CC1(C)C2CCC1(C)[C@H](O)[C@H]2Nc1cc(C(F)(F)F)cc(C(F)(F)F)c1 (stereo partly drawn)	3.07 µM (inactive)
CC(=O)OCC1OC(Nc2ccc3nc(C)n(-c4ccccc4)c(=O)c3c2)C(OC(C)=O)C(OC(C)=O)C1OC(C)=O (stereo not drawn)	> 50 µM (inactive)
C/C(CC(O)(C(F)(F)F)C(F)(F)F)=N/Nc1ccc([N+](=O)[O-])cc1[N+](=O)[O-]	2.85 µM (inactive)

====

Tested on: COLO 205
Assay: NCI tumour cell line growth inhibition, 48 h
Active and inactive are the calls of the source. Cut-off read from the data, not from the text of the source: active = GI50 up to about 1.1 µM and inactive = higher.
Labels: active, inactive

Compound	Classification
Cc1ccc(S(=O)(=O)NC2(C=O)CCCC3CCCCC32)cc1 (stereo unspecified)	inactive
CC1C=C[C@H](Sc2ccccc2)CC[C@@]1(C)O (stereo partly specified)	inactive
Cc1nc2ccc(C(F)(F)F)cc2nc1Nc1ccc(Cl)c(Cl)c1	inactive
O=C(O)c1cc(/N=N/c2ccc([N+](=O)[O-])cc2)ccc1O	inactive
[N-]=[N+]=CC(=O)CCC(NC(=O)C(CCC(=O)C=[N+]=[N-])NC(=O)CCC(N)C(=O)O)C(=O)O (stereo unspecified)	inactive
O=C1c2ccccc2C(=O)N1CCN(CCN1C(=O)c2ccccc2C1=O)Cn1cccn1	inactive
O=C1OC(c2ccccc2Br)=N/C1=C/c1ccccc1	inactive
COc1ccc2cc(CNCCCCCCNCc3ccc4cc(OC)ccc4c3)ccc2c1	active
O=C1NC(=O)C(C(=O)C(=O)Nc2cc(Cl)ccc2Cl)C(=O)N1	inactive
COC1OC(C)C(O)CC1OS(=O)(=O)c1ccc(C)cc1 (stereo unspecified)	inactive
CCOC(=O)/C=C1\Oc2ccccc2C1(C)O (stereo unspecified)	inactive

====

System: UACC-62
Assay: NCI tumour cell line growth inhibition, 48 h
Activity calls are given as the source filed them. Rule as the data show it: active = GI50 up to about 1.1 µM and inactive = higher.
# GI50 annotations
Observable: GI50

Compound	Observable	Result
CCCCCCOP(=O)(OCCCCCC)C(NC(=O)OCC)(C(F)(F)F)C(F)(F)F	GI50	41.6 µM (inactive)
COc1ccc(NC2Oc3cc4c(cc3C(c3cc(OC)c(O)c(OC)c3)C2C)OCO4)cc1 (stereo unspecified)	GI50	2.74 µM (inactive)
CCCN(CCC)C(=S)N/N=C(/C)c1ccccc1O	GI50	3.19 µM (inactive)
Nc1ccc(-c2nn3c(COc4ccc(Cl)cc4)nnc3s2)cc1	GI50	> 100 µM (inactive)
CNC(=O)[C@H](Cc1ccccc1)NC(=O)N(CCC#N)CCN(C(=O)N[C@@H](Cc1ccccc1)C(=O)OC)c1ccccc1	GI50	> 100 µM (inactive)
CC(=O)N(C)SCC(NC(=O)C(Cc1ccccc1)NC(=O)OCc1ccccc1)C(=O)NC(Cc1ccccc1)C(=O)NC(Cc1cn(C=O)c2ccccc12)C(=O)NC(CCCCNC(=O)OCc1ccccc1)C(=O)NC(C(=O)NC(CSN(C)C(C)=O)C(=O)NO)C(C)OCc1ccccc1 (stereo unspecified)	GI50	> 100 µM (inactive)
COc1ccc(CCN2C(=O)C(=O)C(C(=O)c3ccccc3)C2c2ccccc2)cc1OC (stereo unspecified)	GI50	> 100 µM (inactive)
NCCSc1nc2ccccc2c(=O)n1-c1ccccc1	GI50	26.4 µM (inactive)
CC1OC(n2cc(F)c(=O)[nH]c2=O)CCC1O (stereo unspecified)	GI50	> 100 µM (inactive)
Oc1ccc2ccccc2c1OCc1nnc(CCCCCCCCc2nnc(COc3c(O)ccc4ccccc34)o2)o1	GI50	> 100 µM (inactive)
Cc1c2n(c(=O)[nH]c1=O)C1OC(CO)C(O2)C1O (stereo unspecified)	GI50	> 100 µM (inactive)
C[C@]12CC[C@H](O)C[C@H]1CC[C@@H]1[C@@H]2CC[C@]2(C)[C@@H](C3=CC(=O)OC3)CC[C@]12O [DIGITOXIGENIN]	GI50	0.36 µM (active)
CSc1c(C#N)c(N)n(-c2ccc(C)cc2)c(=O)c1C#N	GI50	> 100 µM (inactive)
N#Cc1c(-c2ccccc2)c2c([nH]c1=O)-c1cc([N+](=O)[O-])ccc1CCC2	GI50	17.5 µM (inactive)
Cc1ccc(N2CN3OC(=O)N(c4ccccc4)[C@@]3(c3ccccc3)C2)cc1	GI50	21.2 µM (inactive)
O=C(O[C@H](/C=C/c1ccccc1)P1(=O)N(Cc2ccccc2)[C@H]2CCCC[C@@H]2N1Cc1ccccc1)c1ccccc1	GI50	5.33 µM (inactive)
NCC(O)CN.Oc1c(Cl)c(Cl)c(Cl)c(Cl)c1Cl	GI50	19 µM (inactive)
COc1ccc2oc(-c3cccnc3)cc(=O)c2c1	GI50	80.7 µM (inactive)
C=C1C(=O)OC2C1CCC(=C)C1CC(O)C(=C)C12 (stereo unspecified)	GI50	13.5 µM (inactive)
Cc1cccc(C(=O)O)c1CC1NCCC2c3ccccc3NC12 (stereo unspecified)	GI50	> 100 µM (inactive)
CC1=C(c2ccc(C)cc2)NC(=S)C(C)C(c2ccc(C)cc2)=N1 (stereo unspecified)	GI50	89.7 µM (inactive)
C=CNC(=O)NC(=O)CSc1nc(=O)c(-c2ccccc2NC(=O)C(F)(F)F)n[nH]1	GI50	> 100 µM (inactive)
N#Cc1c(N)c(-c2ccc(Cl)cc2)c(F)c2ccccc12	GI50	> 100 µM (inactive)
CCC(CC)NC1=C(NC(C)=O)C(=O)c2ccccc2C1=O	GI50	> 50 µM (inactive)
c1csc(-c2cc(-c3cccs3)c(-c3cccs3)s2)c1	GI50	54.2 µM (inactive)
O=C1OC(c2ccccc2Br)=N/C1=C/c1ccccc1	GI50	37.1 µM (inactive)
Cc1nc2ccccc2c(-n2cccn2)c1CCn1cccn1	GI50	80.2 µM (inactive)
C=CCCC(C)N(C(=O)OC(C)(C)C)S(=O)(=O)c1ccc(C)cc1 (stereo unspecified)	GI50	77.4 µM (inactive)
Cc1ccc(S(=O)(=O)NC2(C=O)CCCC3CCCCC32)cc1 (stereo unspecified)	GI50	> 100 µM (inactive)
CCN1CCC(O)(/C=C/c2ccccc2)C(C(=O)/C=C/c2ccccc2)C1 (stereo unspecified)	GI50	1.71 µM (inactive)
O=C1NC(=O)C(C(=O)C(=O)Nc2cc(Cl)ccc2Cl)C(=O)N1	GI50	> 100 µM (inactive)
COc1ccc2c(c1)c(=O)c1ccccc1n2/C=C/C(=O)O	GI50	> 100 µM (inactive)
c1cc2c(ncc3cscc32)s1	GI50	> 31.6 µM (inactive)
COC(=O)C1C(=O)O[C@@H](c2ccc(OC)cc2OC)C1C(=O)OC (stereo partly specified)	GI50	> 100 µM (inactive)
CCCN1C(=O)CCC2=C1CCc1c2ccc(Cl)c1Cl	GI50	0.492 µM (active)
C#C[C@H](CCCC)OC(=O)N[C@H](C)c1ccccc1	GI50	80.9 µM (inactive)
CCOC(=O)C1C2CCC1CC(=NNc1ccc([N+](=O)[O-])cc1[N+](=O)[O-])C2 (stereo unspecified)	GI50	> 50 µM (inactive)
O=c1c(Cc2ccccc2Cc2c(O)oc3ccccc3c2=O)c(O)oc2ccccc12	GI50	> 100 µM (inactive)
CC(C)(C)OC(=O)NCC(c1c[nH]c2ccc(Br)cc12)c1c[nH]c2ccc(Br)cc12	GI50	11.1 µM (inactive)
Nc1cc(O)nc(SC2=NC(N)CC(O)C2)n1 (stereo unspecified)	GI50	> 100 µM (inactive)
CC1=N/C(=C/c2ccc3c(c2)OCO3)C(=O)O1	GI50	> 100 µM (inactive)
